This collection of values is drawn from PubChem BioAssay.

Assay: modulators of CIT2-GFP expression in yeast, confirmation, S. cerevisiae, GFP fusion, cherry picks, mother/daughter gates (AID 2274)
Conditions: S. cerevisiae CIT2-GFP strain, flow cytometry, 3 h; measured here: daughter cell gate; at 10 µM; stronger effect = higher value
Readout Name: GFP response, % of DMSO (%)
API: value field is a number in %; no unit string.

Would you kindly share the measured GFP response, % of DMSO for `Cc1cccc(CS(=O)(=O)c2ncc(Cl)c(C(=O)NCc3ccccc3)n2)c1` ?
91.5

Would you kindly share the measured GFP response, % of DMSO for `Cc1cccc(/C=C/c2onc(C)c2[N+](=O)[O-])n1` ?
91.5

Would you kindly share the measured GFP response, % of DMSO for `COc1ccc(OC(=O)c2cccc(S(=O)(=O)N3CCCC3)c2)cc1` ?
103

Would you kindly share the measured GFP response, % of DMSO for `Oc1c(Br)cc(Br)cc1C=NCc1ccccc1` ?
108

Would you kindly share the measured GFP response, % of DMSO for `O=C(O)c1ccc(SCc2cnc(Cl)s2)cc1` ?
101

Would you kindly share the measured GFP response, % of DMSO for `CCNC(=O)c1c(O)c2cccc3c2n(c1=O)CC3` ?
101

Would you kindly share the measured GFP response, % of DMSO for `Cc1ccc(C(=O)Nc2nnc(CC(=O)N/N=C/c3ccc(O)c(O)c3)s2)cc1` ?
103

Would you kindly share the measured GFP response, % of DMSO for `CC(=O)Nc1ccc(NC(=O)CSc2ncc(C(=O)Nc3ccccc3)c(=O)n2C)cc1` ?
103

Would you kindly share the measured GFP response, % of DMSO for `O=C(/C=C/c1ccnc2ccccc12)c1cccs1` ?
94.6

Would you kindly share the measured GFP response, % of DMSO for `COc1ccccc1-c1nnc(NC(=O)c2ccc(S(=O)(=O)N(C)C)cc2)o1` ?
106

Would you kindly share the measured GFP response, % of DMSO for CCCc1nn(-c2ccccc2)c2c1C(c1cccs1)C(C#N)=C(N)O2 (stereo unspecified) ?
98.1

Would you kindly share the measured GFP response, % of DMSO for `COc1cc(/C=C2\C(=O)N(CCC#N)N=C2C)c(Br)cc1OC(C)C` ?
94.8

Would you kindly share the measured GFP response, % of DMSO for `O=C(N/N=C/c1ccccc1Cl)c1cccc(F)c1` ?
101

Would you kindly share the measured GFP response, % of DMSO for `N=C1S/C(=C\c2ccco2)C(=O)N1c1nccs1` ?
108

Would you kindly share the measured GFP response, % of DMSO for `O=C(CSc1cccc[n+]1[O-])CSc1cccc[n+]1[O-]` ?
101

Would you kindly share the measured GFP response, % of DMSO for `Cc1noc2ncnc(Sc3ccccc3Cl)c12` ?
113

Would you kindly share the measured GFP response, % of DMSO for `Cn1nnnc1N=N/C(=N/Nc1ccccc1)c1ccccc1` ?
88.4

Would you kindly share the measured GFP response, % of DMSO for `O=c1c2c(-c3cccs3)csc2ncn1/N=C/c1ccccn1` ?
92

Would you kindly share the measured GFP response, % of DMSO for `COc1ccc(N(CC(=O)N/N=C/c2cc(OC)ccc2OC)S(=O)(=O)c2ccccc2)cc1` ?
101

Would you kindly share the measured GFP response, % of DMSO for O=C1C2C3C=CC(CNS(=O)(=O)c4ccccc4)(O3)C2C(=O)N1c1ccc(Cl)cc1 (stereo unspecified) ?
113

Would you kindly share the measured GFP response, % of DMSO for `O=C(c1ccccc1)N1CCN(c2ccccc2F)CC1` ?
97.6

Would you kindly share the measured GFP response, % of DMSO for `CCOc1ccc2ccccc2c1C(=O)N1CCN(c2ccccc2)CC1` ?
94

Would you kindly share the measured GFP response, % of DMSO for `Cc1cc(C)nc(/N=c2/ssnc2Cl)c1` ?
110

Would you kindly share the measured GFP response, % of DMSO for Cc1cccn2c(=O)c(/C=C(\C#N)C(=O)NCc3ccco3)c(N3CCCC(C)C3)nc12 (stereo unspecified) ?
100

Would you kindly share the measured GFP response, % of DMSO for `O=C(/C=C/c1ccccc1)c1ccccc1O` ?
139

Would you kindly share the measured GFP response, % of DMSO for CCOC(=O)c1c(C)oc2c1c(C(c1cccnc1)N1CCOCC1)c(O)c1ccccc12 (stereo unspecified) ?
109

Would you kindly share the measured GFP response, % of DMSO for `Cc1c(CC(C)C)nc(N)c(C#N)c1-c1ccccc1` ?
102

Would you kindly share the measured GFP response, % of DMSO for `O=[N+]([O-])c1ccc(-c2cn3nc(-c4ccccc4)c(-c4ccccc4)nc3n2)cc1` ?
106

Would you kindly share the measured GFP response, % of DMSO for `COc1ccccc1C(=O)N1CCN(c2cccc(C(F)(F)F)c2)CC1` ?
100

Would you kindly share the measured GFP response, % of DMSO for `CCCCCCCCn1c(=O)c(C(=O)OCC)c(O)c2ccccc21` ?
101

Would you kindly share the measured GFP response, % of DMSO for `Cc1ccc(Cl)cc1N1CCN(C(=O)CSc2ccsc2[N+](=O)[O-])CC1` ?
99.2

Would you kindly share the measured GFP response, % of DMSO for `O=C1ON=C(c2ccccc2)/C1=C/c1ccco1` ?
92.7

Would you kindly share the measured GFP response, % of DMSO for CCOC(=O)c1c(C)oc2c1c(C(c1ccncc1)N1CCOCC1)c(O)c1ccccc12 (stereo unspecified) ?
114

Would you kindly share the measured GFP response, % of DMSO for `N#C/C(C(=O)Nc1ccc(Cl)cc1)=C(/S)Nc1ccccc1` ?
105

Would you kindly share the measured GFP response, % of DMSO for `CCOC(=O)Cc1csc(NC(=O)CSc2nnc(-c3ccc(C)cc3)o2)n1` ?
98.3

Would you kindly share the measured GFP response, % of DMSO for CCCc1[nH]nc2c1C(c1cccnc1)C(C#N)=C(N)O2 (stereo unspecified) ?
99.1

Would you kindly share the measured GFP response, % of DMSO for `Cc1cc(O)c(C(=O)/C=C/c2ccccc2O)c(=O)o1` ?
91.7

Would you kindly share the measured GFP response, % of DMSO for `COc1ccc(N/N=C(\C#N)C(N)=O)cc1` ?
114

Would you kindly share the measured GFP response, % of DMSO for CC(C)(C)C(=O)C(Cl)C(=O)Nc1ccccc1 (stereo unspecified) ?
106

Would you kindly share the measured GFP response, % of DMSO for `N/C(=N\OC(=O)c1cccc(Br)c1)c1ccccc1` ?
121

Would you kindly share the measured GFP response, % of DMSO for `C/C(=N\NC(=O)c1ccc(Br)cc1)c1ccccc1` ?
99.1

Would you kindly share the measured GFP response, % of DMSO for `COc1cccc(/C=N/Nc2nc(-c3cccnc3)nc3ccccc23)c1` ?
103

Would you kindly share the measured GFP response, % of DMSO for `O=C(CCS(=O)(=O)Cc1ccccc1F)NCCc1ccc(Cl)cc1` ?
99.3

Would you kindly share the measured GFP response, % of DMSO for COc1ccc(-c2ccc(SCC(=O)N3c4ccccc4CC3C)nn2)cc1OC (stereo unspecified) ?
96.4

Would you kindly share the measured GFP response, % of DMSO for `CCn1c(=O)c(C(=O)Nc2ccsc2C(=O)OC)c(O)c2ccccc21` ?
99.2

Would you kindly share the measured GFP response, % of DMSO for `O=C(NCc1ccc2c(c1)OCO2)c1nc(S(=O)(=O)Cc2ccccc2F)ncc1Cl` ?
94
